Reference source: patent US20220195015A1

# TGT: SARS-CoV-2 spike receptor binding domain (RBD), wild type (SARS-CoV-2, UniProt P0DTC2 319-539)
# EXPERIMENTAL_PROTOCOL: ELISA on coated RBD protein
OBSERVED_PROPERTY: EC50 (ng/mL)
Give just the number in ng/mL; leave the unit off.

Request: Supply EC50 value. Item: C164 (antibody, V domains shown) VH: EVQLVESGGGLVQPGGSLRLSCAASGFSVSTKYMTWVRQAPGKGLEWVSVLYSGGSDYYADSVKGRFTISRDNSKNALYLQMNSLRVEDTGVYYCARDSSEVRDHPGHPGRSVGAFDIWGQGTMVTVSS VL: QSALTQPASVSGSPGQSITISCTGTSNDVGSYTLVSWYQQYPGKAPKLLIFEVTKRSSGISNRFSGSKSGNTASLTISGLQGEDEADYYCCSYAGASTFVFGGGTKLTVL
Result: 1.41

Request: For C045 (antibody, V domains shown) VH: EVQLVESGGGLVQPGGSLRLSCAASGFTFSTYSMNWVRQAPGKGLEWVSYISSSSSTIHYADSVKGRFTISRDNAKNSLYLQMNSLRDEDTAVYYCAREAHDGALTDYGDYLNWFDPWGQGTLVTVSS VL: SYELTQPPSVSVAPGKTARITCGGTNIGSKNVHWYQQKPGQAPVLVIYYDNDRPSGIPERFSGSNSGNTATLTISRVEAGDEADYYCQVWDTTSDHFYWVFGGGTKLTVL , write its EC50.
Result: 7

More entries:
Request: Assign EC50 to the following record: C051 (antibody, V domains shown) VH: EVQLVESGGGLIQAGGSLRLSCAASGFGVRNNYMSWVRQAPGKGLEWVSVIYSGGTTYYADSVKGRFTISRDNSKNTVFLQMNSLRAEDTAVYYCAREGDVEGFSDLWSGYSRDRYYFDYWGQGTLVTVSS VL: QSALTQPASVSGSPGQSITFSCTGTSSDVGGYNYVSWYQQYPGKAPKLLIYDVTNRPSGVSDRFSGSKSGNTASLTISGLQAEDEADYYCSSFTSSNTRVFGTGTKVTVL
Result: 1.65
